The reported measurements were obtained from patent US10118915B2.

- TGT: kappa opioid receptor (OPRK1) (Homo sapiens (Human), UniProt P41145)
- Sequence (P41145 whole entry): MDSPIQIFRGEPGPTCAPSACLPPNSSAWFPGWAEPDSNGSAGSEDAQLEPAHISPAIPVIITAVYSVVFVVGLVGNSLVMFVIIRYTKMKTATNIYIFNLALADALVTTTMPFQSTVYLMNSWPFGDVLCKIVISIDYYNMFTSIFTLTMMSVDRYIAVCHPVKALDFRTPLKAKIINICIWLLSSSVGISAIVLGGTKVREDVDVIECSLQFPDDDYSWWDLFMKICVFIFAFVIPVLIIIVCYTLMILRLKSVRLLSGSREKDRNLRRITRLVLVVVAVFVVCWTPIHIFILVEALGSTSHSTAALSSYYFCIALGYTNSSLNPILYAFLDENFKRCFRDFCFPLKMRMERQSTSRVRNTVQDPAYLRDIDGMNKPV
- TEST_METHOD_NOTES: OPRK1 antagonist assay (b-arrestin-2-TEV protease / b-lactamase reporter cell line, EC80 challenge of U-50488)
- Format: cell-based
- DETAILS: antagonist mode vs EC80 U-50488; read-out: IC50
pIC50: −log10 of the molar value.

{"COMPOUND": "Cc1nc(-c2cc3ccc(F)cc3nc2N2CCC(NC3CCOCC3)CC2)no1 [compound 486]", "TGT": "kappa opioid receptor (OPRK1) (Homo sapiens (Human), UniProt P41145)", "COMPARISON_SIGN": "=", "pIC50": 5.97}
{"COMPOUND": "Cc1nc(-c2cc3cc(F)ccc3nc2N2CCC(NC3CCCCCC3)CC2)no1 [compound 489]", "TGT": "kappa opioid receptor (OPRK1) (Homo sapiens (Human), UniProt P41145)", "COMPARISON_SIGN": "=", "pIC50": 6.21}
{"COMPOUND": "Cc1cc(C#N)nc(N2CCC(N[C@@H]3CCCC[C@H]3O)CC2)c1C#N [C11]", "TGT": "kappa opioid receptor (OPRK1) (Homo sapiens (Human), UniProt P41145)", "COMPARISON_SIGN": "<", "pIC50": 5.00}
{"COMPOUND": "CCc1noc(-c2cc3cc(C)ccc3nc2N2CC[C@@H](NC3CCCCC3)[C@H](OC)C2)n1 [compound 335]", "TGT": "kappa opioid receptor (OPRK1) (Homo sapiens (Human), UniProt P41145)", "COMPARISON_SIGN": "=", "pIC50": 6.95}
{"COMPOUND": "COC1CN(c2nc3ccccc3cc2C2=NCC(C)O2)CCC1NC1CCCCC1O (centres unmarked) [compound 258]", "TGT": "kappa opioid receptor (OPRK1) (Homo sapiens (Human), UniProt P41145)", "COMPARISON_SIGN": "=", "pIC50": 5.15}

====

- TGT: kappa opioid receptor (OPRK1) (Homo sapiens (Human), UniProt P41145)
- TEST_METHOD_NOTES: OPRK1 antagonist assay (b-arrestin-2-TEV protease / b-lactamase reporter cell line, EC80 challenge of U-50488)
- Type: cell-based
pIC50: −log10 of the molar value.

{"MOLECULE": "CC(C)c1noc(-c2cc(Br)cnc2N2CCC(NC3CCCCC3)CC2)n1", "pIC50": "< 5.00"}
{"MOLECULE": "Cc1ccc2nc(N3C[C@@H]4[C@H](C3)[C@H]4NC3CCOCC3)c(-c3nc(C)no3)cc2c1", "pIC50": "< 5.00"}
{"MOLECULE": "COC(=O)c1cc(Br)cnc1NC1CCC(NC2CCCCC2)CC1 (stereo not drawn)", "pIC50": "< 5.00"}
